// provenance: patent EP0227941A1

- target: Monoaminoxidase Typ A (Rattus norvegicus, UniProt P21396)
- Construct: Die Bestimmung der Monoaminoxidase erfolgte in verdünntem Rattenhirnhomogenat; from tissue; host or cells: rat brain homogenate
- Sequence (P21396 1-526): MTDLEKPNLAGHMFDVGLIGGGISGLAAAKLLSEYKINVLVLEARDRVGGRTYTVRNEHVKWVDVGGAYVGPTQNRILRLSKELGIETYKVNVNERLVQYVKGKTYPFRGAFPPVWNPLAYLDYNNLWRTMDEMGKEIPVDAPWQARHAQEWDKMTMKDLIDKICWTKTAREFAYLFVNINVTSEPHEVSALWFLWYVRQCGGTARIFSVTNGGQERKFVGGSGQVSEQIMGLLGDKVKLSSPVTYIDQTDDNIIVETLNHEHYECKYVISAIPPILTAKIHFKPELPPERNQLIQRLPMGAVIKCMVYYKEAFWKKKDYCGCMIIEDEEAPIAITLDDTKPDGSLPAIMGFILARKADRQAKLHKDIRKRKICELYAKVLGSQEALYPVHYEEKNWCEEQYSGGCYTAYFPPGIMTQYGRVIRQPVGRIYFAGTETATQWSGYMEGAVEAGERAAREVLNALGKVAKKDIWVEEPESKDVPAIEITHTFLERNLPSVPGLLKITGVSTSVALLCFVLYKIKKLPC
- assay remarks: Inhibition of monoamine oxidase type A in rat brain homogenate (14C-tryptamine)
- Type: biochemical, Ratten
- condition: Quotient IC50 Referenzverbindung / IC50 Beispielverbindung
Hemmung der Monoaminoxidase Typ A r.W. (relative Wirksamkeit): recorded values

For orientation, consider the following solved cases.
Cc1cc(-n2ccc(=N)cn2)ccc1Br [Beispiel 46] : 4.2
N=c1ccn(-c2ccc(C(F)(F)F)c(Cl)c2)nc1 [Beispiel 12] : 2.3
N=c1ccn(-c2ccc(Br)c(Br)c2)nc1 [Beispiel 18] : 4.8
COc1cc(-n2ccc(=N)cn2)ccc1C.Cl [Beispiel 10] : 3.4
Cc1cc(-n2ccc(=N)cn2)ccc1Cl [Beispiel 45] : 4.2

Recorded Hemmung der Monoaminoxidase Typ A r.W. (relative Wirksamkeit) for Cc1ccc(-n2ccc(=N)cn2)cc1Br [Beispiel 13] on Monoaminoxidase Typ A (Rattus norvegicus, UniProt P21396) was 7.0

Recorded Hemmung der Monoaminoxidase Typ A r.W. (relative Wirksamkeit) for N=c1ccn(-c2ccc(Cl)c(Cl)c2)nc1 [Beispiel 1] on Monoaminoxidase Typ A (Rattus norvegicus, UniProt P21396) was 2.2

Recorded Hemmung der Monoaminoxidase Typ A r.W. (relative Wirksamkeit) for Cc1ccc(-n2ccc(=N)cn2)cc1Cl [Beispiel 42] on Monoaminoxidase Typ A (Rattus norvegicus, UniProt P21396) was 5.6

Recorded Hemmung der Monoaminoxidase Typ A r.W. (relative Wirksamkeit) for CCc1ccc(-n2ccc(=N)cn2)cc1.Cl [Beispiel 7] on Monoaminoxidase Typ A (Rattus norvegicus, UniProt P21396) was 6.6

Recorded Hemmung der Monoaminoxidase Typ A r.W. (relative Wirksamkeit) for N=c1ccn(-c2ccc(Br)cc2)nc1 [Beispiel 8] on Monoaminoxidase Typ A (Rattus norvegicus, UniProt P21396) was 1.4

Recorded Hemmung der Monoaminoxidase Typ A r.W. (relative Wirksamkeit) for Br.Cc1ccc(-n2ccc(=N)cn2)cc1 [Beispiel 5] on Monoaminoxidase Typ A (Rattus norvegicus, UniProt P21396) was 2.8

Recorded Hemmung der Monoaminoxidase Typ A r.W. (relative Wirksamkeit) for N=c1ccn(-c2ccc(C(F)(F)F)cc2)nc1 [Beispiel 32] on Monoaminoxidase Typ A (Rattus norvegicus, UniProt P21396) was 0.6

Recorded Hemmung der Monoaminoxidase Typ A r.W. (relative Wirksamkeit) for Cc1ccc(-n2ccc(=N)cn2)cc1F [Beispiel 11] on Monoaminoxidase Typ A (Rattus norvegicus, UniProt P21396) was 2.0

Recorded Hemmung der Monoaminoxidase Typ A r.W. (relative Wirksamkeit) for N=c1ccn(-c2ccc(Br)c(Cl)c2)nc1 [Beispiel 17] on Monoaminoxidase Typ A (Rattus norvegicus, UniProt P21396) was 2.7

Recorded Hemmung der Monoaminoxidase Typ A r.W. (relative Wirksamkeit) for N=c1ccn(-c2ccc(Cl)c(Br)c2)nc1 [Beispiel 16] on Monoaminoxidase Typ A (Rattus norvegicus, UniProt P21396) was 2.0
